testTarget: Bile salt export pump (Rattus norvegicus, UniProt O70127)
Sequence (O70127 whole entry): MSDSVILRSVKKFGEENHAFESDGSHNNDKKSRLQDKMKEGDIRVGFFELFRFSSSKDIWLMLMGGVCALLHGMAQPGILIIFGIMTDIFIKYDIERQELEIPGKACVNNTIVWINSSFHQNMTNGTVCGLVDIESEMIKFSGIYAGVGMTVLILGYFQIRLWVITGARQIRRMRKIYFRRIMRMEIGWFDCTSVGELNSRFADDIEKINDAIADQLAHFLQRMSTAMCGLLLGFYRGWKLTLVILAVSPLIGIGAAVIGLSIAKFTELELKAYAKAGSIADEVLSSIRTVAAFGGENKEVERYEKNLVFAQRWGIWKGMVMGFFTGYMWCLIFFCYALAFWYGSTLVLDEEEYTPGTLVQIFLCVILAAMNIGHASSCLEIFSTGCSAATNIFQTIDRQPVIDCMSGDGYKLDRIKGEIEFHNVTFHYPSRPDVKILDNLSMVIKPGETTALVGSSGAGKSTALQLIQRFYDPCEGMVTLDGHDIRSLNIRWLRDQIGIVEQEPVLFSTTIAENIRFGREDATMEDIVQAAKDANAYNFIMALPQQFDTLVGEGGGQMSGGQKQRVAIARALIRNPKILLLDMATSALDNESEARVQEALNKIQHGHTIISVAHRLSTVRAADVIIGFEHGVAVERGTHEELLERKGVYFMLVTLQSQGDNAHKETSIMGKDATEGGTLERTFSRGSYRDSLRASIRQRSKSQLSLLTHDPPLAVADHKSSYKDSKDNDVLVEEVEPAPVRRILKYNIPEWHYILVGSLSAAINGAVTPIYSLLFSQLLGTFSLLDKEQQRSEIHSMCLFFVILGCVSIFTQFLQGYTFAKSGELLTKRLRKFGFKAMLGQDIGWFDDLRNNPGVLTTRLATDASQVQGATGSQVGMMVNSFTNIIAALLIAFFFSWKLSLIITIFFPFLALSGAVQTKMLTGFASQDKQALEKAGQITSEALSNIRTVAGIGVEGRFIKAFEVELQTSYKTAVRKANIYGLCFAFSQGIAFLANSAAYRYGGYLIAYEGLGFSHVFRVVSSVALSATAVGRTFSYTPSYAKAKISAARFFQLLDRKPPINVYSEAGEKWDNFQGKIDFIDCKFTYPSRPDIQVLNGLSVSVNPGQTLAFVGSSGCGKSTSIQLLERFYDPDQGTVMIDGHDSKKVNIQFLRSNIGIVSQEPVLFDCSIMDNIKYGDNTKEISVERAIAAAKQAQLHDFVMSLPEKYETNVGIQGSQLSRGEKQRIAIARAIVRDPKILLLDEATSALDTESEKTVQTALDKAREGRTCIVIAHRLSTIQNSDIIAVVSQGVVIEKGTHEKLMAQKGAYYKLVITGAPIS
assayProtocol: Inhibition of Sprague-Dawley rat Bsep expressed in plasma membrane vesicles of Sf21 cells assessed as inhibition of ATP-dependent [3H]taurocholate uptake
Overview of recorded pIC50 for various compounds
Please treat pIC50 as minus the base-10 logarithm of the molar concentration.

# compound, number
records = [
    ("Cc1oncc1C(=O)Nc1ccc(C(F)(F)F)cc1 [LEFLUNOMIDE]", 3.95),
    ("CC1=C(CC(=O)O)c2cc(F)ccc2/C1=C\\c1ccc([S+](C)[O-])cc1 (centres undefined)", 4.06),
    ("CC(C(=O)O)c1ccc2oc(-c3ccc(Cl)cc3)nc2c1 (centres undefined)", 4.00),
    ("Cc1ccc(C(=O)c2cc(O)c(O)c([N+](=O)[O-])c2)cc1", 4.33),
    ("CC(=O)O[C@H]1C[C@@]2(C)[C@@H](C[C@@H](O)[C@H]3[C@@]4(C)CC[C@@H](O)[C@@H](C)[C@@H]4CC[C@@]32C)/C1=C(\\CCC=C(C)C)C(=O)O", 4.76),
]

Supply recorded pIC50 for Cc1onc(-c2c(Cl)cccc2Cl)c1C(=O)N[C@@H]1C(=O)N2[C@@H]1SC(C)(C)[C@@H]2C(=O)O here.
3.95

Supply recorded pIC50 for CN(CCOc1ccc(CC2SC(=O)NC2=O)cc1)c1ccccn1 (centres undefined) here.
4.40

Supply recorded pIC50 for CC(C)Cc1ccc(C(C)C(=O)O)cc1 (centres undefined) here.
3.54

Supply recorded pIC50 for CC(C)(Oc1ccc(C2CC2(Cl)Cl)cc1)C(=O)O (centres undefined) [CIPROFIBRATE] here.
3.72

Supply recorded pIC50 for COc1ccccc1Oc1c(NS(=O)(=O)c2ccc(C(C)(C)C)cc2)nc(-c2ncccn2)nc1OCCO here.
4.51

Supply recorded pIC50 for COC(=O)C1=C(C)NC(C)=C(C(=O)OC)C1c1ccccc1[N+](=O)[O-] here.
4.34

Supply recorded pIC50 for CCc1nn(CCCN2CCN(c3cccc(Cl)c3)CC2)c(=O)n1CCOc1ccccc1 here.
4.76

Supply recorded pIC50 for CC(c1cc2ccccc2s1)N(O)C(N)=O (centres undefined) here.
3.25

Supply recorded pIC50 for COc1cc2c(cc1OC)C(=O)C(CC1CCN(Cc3ccccc3)CC1)C2 (centres undefined) here.
3.28

Supply recorded pIC50 for O=C1CC2(CCCC2)CC(=O)N1CCCCN1CCN(c2ncccn2)CC1 here.
3.43

Supply recorded pIC50 for CC(C)(Oc1ccc(CCNC(=O)c2ccc(Cl)cc2)cc1)C(=O)O [BEZAFIBRATE] here.
3.41
